Reference source: paper PMC6272428

- protocol: Stability of the four compounds in rat plasma QC samples (freeze-thaw, storage at −80 °C, autosampler)
- Assay type: physicochemical
- particulars: processed rat plasma, auto-sampler 4 °C for 24 h, high QC concentration (1.23 × 10^3, 1.11 × 10^3, 1.14 × 10^3, 1.42 × 10^3 ng/mL for 1–4)
readoutName: Stability, Autosampler for 24 h, Accuracy (%)
Answers are plain numbers, in %.

Worked examples, 3 molecules total:
[
  {
    "molecule": "CC12CC(O)C3CC1(OC1OC(CO)C(O)C(O)C1O)C3(COC(=O)c1ccccc1)C(=O)O2 (stereo not shown)",
    "quantitativeResult": 99.91
  },
  {
    "molecule": "C[C@@]12C[C@@]3(O)O[C@@H](O1)[C@]1(COC(=O)c4ccccc4)[C@H]3C[C@@]12O[C@@H]1O[C@H](CO)[C@@H](O)[C@H](O)[C@H]1O",
    "quantitativeResult": 104.13
  },
  {
    "molecule": "CC1(C)[C@@H](O[C@H]2O[C@H](C(=O)O)[C@@H](O)[C@H](O)[C@H]2O[C@@H]2O[C@H](C(=O)O)[C@@H](O)[C@H](O)[C@H]2O)CC[C@]2(C)[C@H]3C(=O)C=C4[C@@H]5C[C@@](C)(C(=O)O)CC[C@]5(C)CC[C@@]4(C)[C@]3(C)CC[C@@H]12",
    "quantitativeResult": 87.36
  }
]

Bench note: what Stability, Autosampler for 24 h, Accuracy did O=C1C[C@@H](c2ccc(O[C@@H]3O[C@H](CO)[C@@H](O)[C@H](O)[C@H]3O)cc2)Oc2cc(O)ccc21 show? 97.11

* * *

Would you mind telling me the reported Stability, Freeze-thaw cycles, Accuracy of each entry?
- protocol: Stability of the four compounds in rat plasma QC samples (freeze-thaw, storage at −80 °C, autosampler)
- Type: physicochemical
- particulars: rat plasma, three freeze-thaw cycles −80 °C to 20 °C, high QC concentration (1.23 × 10^3, 1.11 × 10^3, 1.14 × 10^3, 1.42 × 10^3 ng/mL for 1–4)
Answer format: number, then unit.

Worked examples, 3 molecules total:
[
  {
    "molecule": "CC1(C)[C@@H](O[C@H]2O[C@H](C(=O)O)[C@@H](O)[C@H](O)[C@H]2O[C@@H]2O[C@H](C(=O)O)[C@@H](O)[C@H](O)[C@H]2O)CC[C@]2(C)[C@H]3C(=O)C=C4[C@@H]5C[C@@](C)(C(=O)O)CC[C@]5(C)CC[C@@]4(C)[C@]3(C)CC[C@@H]12",
    "Stability, Freeze-thaw cycles, Accuracy": "94.33%"
  },
  {
    "molecule": "CC12CC(O)C3CC1(OC1OC(CO)C(O)C(O)C1O)C3(COC(=O)c1ccccc1)C(=O)O2 (stereo not shown)",
    "Stability, Freeze-thaw cycles, Accuracy": "98.33%"
  },
  {
    "molecule": "O=C1C[C@@H](c2ccc(O[C@@H]3O[C@H](CO)[C@@H](O)[C@H](O)[C@H]3O)cc2)Oc2cc(O)ccc21",
    "Stability, Freeze-thaw cycles, Accuracy": "95.35%"
  }
]

Alright, here's another molecule for you.
Bench note: what Stability, Freeze-thaw cycles, Accuracy did C[C@@]12C[C@@]3(O)O[C@@H](O1)[C@]1(COC(=O)c4ccccc4)[C@H]3C[C@@]12O[C@@H]1O[C@H](CO)[C@@H](O)[C@H](O)[C@H]1O show? 91.57%

* * *

Would you mind telling me the reported AUC(0-t) of each entry?
- protocol: Pharmacokinetics of four compounds in plasma after oral administration of GSBXD and its plus-minus prescriptions in normal rats (LC-MS/MS)
- Type: in vivo
- particulars: Wistar, rat, 15 mL/kg, group GSBXD-GS (GSBXD minus Gansui), 15 mL/kg oral, normal rats, n = 6, mean ± S.D.
Answers are plain numbers, in ng·h/mL.

[
  {
    "compound": "O=C1C[C@@H](c2ccc(O[C@@H]3O[C@H](CO)[C@@H](O)[C@H](O)[C@H]3O)cc2)Oc2cc(O)ccc21 [Compound 2, liquiritin]",
    "readoutName": "AUC(0-t)",
    "quantitativeResult": 421
  },
  {
    "compound": "C[C@@]12C[C@@]3(O)O[C@@H](O1)[C@]1(COC(=O)c4ccccc4)[C@H]3C[C@@]12O[C@@H]1O[C@H](CO)[C@@H](O)[C@H](O)[C@H]1O [Compound 3, paeoniflorin]",
    "readoutName": "AUC(0-t)",
    "quantitativeResult": 910
  }
]

// batch mode: one AUC(0-t) value per listed entry
1. CC12CC(O)C3CC1(OC1OC(CO)C(O)C(O)C1O)C3(COC(=O)c1ccccc1)C(=O)O2 (stereo not shown) [Compound 4, albiflorin]
2. CC1(C)[C@@H](O[C@H]2O[C@H](C(=O)O)[C@@H](O)[C@H](O)[C@H]2O[C@@H]2O[C@H](C(=O)O)[C@@H](O)[C@H](O)[C@H]2O)CC[C@]2(C)[C@H]3C(=O)C=C4[C@@H]5C[C@@](C)(C(=O)O)CC[C@]5(C)CC[C@@]4(C)[C@]3(C)CC[C@@H]12 [Compound 1, glycyrrhizinic acid]

1: 514; 2: 1280

* * *

Would you mind telling me the reported AUC(0-t) of each entry?
- protocol: Pharmacokinetics of four compounds in plasma after oral administration of GSBXD and its plus-minus prescriptions in normal rats (LC-MS/MS)
- Type: in vivo
- particulars: Wistar, rat, 7.5 mL/kg, group GG (extract of Gancao and Gansui), 7.5 mL/kg oral, normal rats, n = 6, mean ± S.D.
One number for each entry, in ng·h/mL.

// batch mode: one AUC(0-t) value per listed entry
1. O=C1C[C@@H](c2ccc(O[C@@H]3O[C@H](CO)[C@@H](O)[C@H](O)[C@H]3O)cc2)Oc2cc(O)ccc21 [Compound 2, liquiritin]
2. CC1(C)[C@@H](O[C@H]2O[C@H](C(=O)O)[C@@H](O)[C@H](O)[C@H]2O[C@@H]2O[C@H](C(=O)O)[C@@H](O)[C@H](O)[C@H]2O)CC[C@]2(C)[C@H]3C(=O)C=C4[C@@H]5C[C@@](C)(C(=O)O)CC[C@]5(C)CC[C@@]4(C)[C@]3(C)CC[C@@H]12 [Compound 1, glycyrrhizinic acid]

1. 788
2. 788
